test: Human HepG2 cell viability assay in 384 well format; format: toxicity, cell-based; set-up: dose 125 nL, time 70.5 hour; concentration not given beside the values; conditions: HepG2 cells, read-out: Inhibition

# Molecule, Unit, cytotoxicity at 70.5 h
records = [
    ("O=C(NCCc1ccco1)Nc1cc(C(F)(F)F)c[nH]c1=O", "%", -0.302),
    ("Cc1ccc(C(=O)N2CC[C@H]3O[C@@H](c4noc(C)n4)C[C@H]3C2)o1", "%", -8.48),
    ("CN1CC(=O)N(c2ccsc2)CC12CCN(S(=O)(=O)c1ccccc1)C2 (configuration not stated)", "%", -109),
    ("Cn1cnn(CC(=O)NCc2ccccc2F)c1=O", "%", 20.6),
    ("O=C(CCN1CCN(c2ccc3nncn3n2)CC1)NC1CCCC1", "%", -5.28),
    ("COCc1nc(CNc2cccc(-c3nc(C)c(C)o3)c2)cs1", "%", -16.1),
    ("O=C([C@@H]1CCCN1c1nccc(Nc2ccccc2)n1)N1CCCCC1", "%", 20.9),
    ("CN1CCN2C[C@@H](CO)[C@H](c3ccccc3)[C@H]2C1", "%", -5.05),
    ("COc1cc(OC)cc(C2(O)CCN(Cc3nc(C)c(C)o3)CC2)c1", "%", 0.268),
    ("Cc1cc(O)c(OCC(=O)Nc2nc3c(s2)CCCC3)cn1", "%", -22.4),
    ("CC1CCN(C(=O)c2ccnc(-n3cncn3)c2)c2ccccc21 (configuration not stated)", "%", 13.2),
    ("O=C(COCc1ccccc1)Nc1ccccn1", "%", 0.318),
    ("CCN(CCC(F)(F)F)C(=O)Nc1cccc(N2CCOCC2)c1", "%", -7.71),
    ("CC(Cn1cc(Br)cn1)C(=O)Nc1ccc(Cl)cn1 (configuration not stated)", "%", 4.53),
    ("CC1=Nc2c(c(=O)[nH]n2C2CCCCC2)C(c2cccnc2)S1 (configuration not stated)", "%", -12),
    ("COc1cc(N2CC[C@@H](OC)[C@@H]2Cc2cnn(C)c2)ncn1", "%", 33.8),
    ("Nc1nccnc1C(=O)NC1CCN(Cc2ccccc2)C1 (configuration not stated)", "%", -10.2),
    ("CC(NCc1ccc(-c2ccc(Cl)cc2)o1)c1nnc2n1CCC2 (configuration not stated)", "%", -4.6),
    ("Cn1nccc1CN1CCCC(COc2ccccc2F)C1 (configuration not stated)", "%", -4.6),
    ("Cc1nn(C)c2c(N3CCN(C(=O)NC4CCCCC4)CC3)ncnc12", "%", 4.87),
    ("CS(=O)(=O)NCc1cccc(COC2CCCCC2)c1", "%", -3.13),
    ("COc1nc(C)cc(C)c1CNC(=O)N(C)Cc1cnn(C)c1", "%", -18),
    ("CCN1CC2(CCC1=O)CCN(Cc1cscn1)CC2", "%", -10.8),
    ("COc1cccc(CN2C[C@@H]3CC[C@@](O)(c4ccccn4)[C@@H]3C2)c1OC", "%", 12.8),
    ("Cc1cc(C(=O)N2CCC(c3nccn3Cc3ccccn3)CC2)no1", "%", -6.61),
    ("CC(=O)N1[C@H](Cn2cncn2)C[C@@H]2CN(C(=O)c3ccoc3)CC[C@@H]21", "%", -6.21),
    ("Cc1ccc(NC2CCN(C(=O)c3ccc(C(N)=O)s3)CC2)nn1", "%", -5.83),
    ("COc1ccc(OCCN(C)Cc2nc3c(cnn3C)c(=O)[nH]2)cc1", "%", -3.93),
    ("CC(C)CN1CC2(CCN(C(=O)C3CSC(C)(C)C(=O)N3)CC2)CC1=O (configuration not stated)", "%", -1.86),
    ("O=C1N(CC2CC2)CCC12CCN(c1ncccn1)CC2", "%", -3.31),
    ("CCn1cc2c(n1)C(COCC1CC1)CN(C(=O)c1ccco1)C2 (configuration not stated)", "%", -10.5),
    ("Cc1nc(-c2cccnc2)ncc1C(=O)N1CCC(C(C)N(C)C)CC1 (configuration not stated)", "%", -2.91),
    ("O=C(C[S+]([O-])Cc1csc(C2CCCC2)n1)NC1CCCC1 (configuration not stated)", "%", -1.25),
    ("Cc1oncc1C(=O)N1CCCc2c(C#N)nn(C)c2C1", "%", -7.62),
    ("Cc1ccc(C(=O)N2CCCC(CNS(C)(=O)=O)C2)o1 (configuration not stated)", "%", -7.3),
    ("COc1c(CNCC(=O)N2CCN(C)CC2)c(C(C)C)nn1C", "%", -5.29),
    ("O=C(CCNS(=O)(=O)c1ccccc1)NCc1ccoc1", "%", -9.84),
    ("CCc1cc(C(=O)N2CCC(C3CCN(c4ncccn4)CC3)C2)on1 (configuration not stated)", "%", 2.57),
    ("Fc1cnc(N2C[C@@H]3COC[C@]3(COc3ccccn3)C2)nc1", "%", 19.5),
    ("Cc1noc(C)c1Cn1cc(I)cc(C)c1=O", "%", 4.77),
    ("Cc1cc(C(=O)NCC2CCS(=O)(=O)C2)ccc1NC(=O)c1ccco1 (configuration not stated)", "%", 2.82),
    ("COCCN1C[C@@H]2CN(c3cnccn3)C[C@@H]2C1=O", "%", -10.9),
    ("CC(C)(C)OC(=O)N1CCC[C@H](NCC2CCOCC2)C1", "%", -0.369),
    ("OCCN(Cc1ccno1)Cc1cc(Br)ccc1F", "%", -14.1),
    ("Cc1oc(-c2ccccc2)nc1C(=O)NC1=NCCS1", "%", -0.24),
    ("Cc1cc(CN2CCN(C(=O)NCc3cccs3)CC2)on1", "%", -14.6),
    ("CC(C)CNC(=O)CN1CCCC(c2ccc(C(=O)O)cc2)C1 (configuration not stated)", "%", -6.21),
]
